I'd be grateful if you could share measured apparent Kd (screen) for these entries.
Assay system: T1, TNFR1 (Homo sapiens, UniProt P19438)
T1 chain: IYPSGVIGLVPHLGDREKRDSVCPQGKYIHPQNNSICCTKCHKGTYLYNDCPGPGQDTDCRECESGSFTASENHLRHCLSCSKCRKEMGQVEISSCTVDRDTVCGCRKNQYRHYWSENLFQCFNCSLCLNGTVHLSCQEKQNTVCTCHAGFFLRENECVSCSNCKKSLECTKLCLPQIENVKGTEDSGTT
Assay procedure: yeast display SC50
I only need the number, in nM, no unit after it.

Return reported apparent Kd (screen); argument: K107Q (designed binder) SMEEEVEKAAKEYEKKKKEAIEKHLEKLKAKDKEAAERFLKELEEAAKEYAKDEAKTMSEEEAKRRAKKYKEKVLLSELSEEEQKEIKEAEEKLVRTILKYVEEAAQ
1.16

Tell me the measured apparent Kd (screen) of Q84G (designed binder) SMEEEVEKAAKEYEKKKKEAIEKHLEKLKAKDKEAAERFLKELEEAAKEYAKDEAKTMSEEEAKRRAKKYKEKVLLSELSEEEGKEIKEAEEKLVRTILKYVEEAAK , please.
12.5

Which measured apparent Kd (screen) value corresponds to E22S (designed binder) SMEEEVEKAAKEYEKKKKEAISKHLEKLKAKDKEAAERFLKELEEAAKEYAKDEAKTMSEEEAKRRAKKYKEKVLLSELSEEEQKEIKEAEEKLVRTILKYVEEAAK ?
0.539

If you can, please state the reported apparent Kd (screen) value of L94V (designed binder) SMEEEVEKAAKEYEKKKKEAIEKHLEKLKAKDKEAAERFLKELEEAAKEYAKDEAKTMSEEEAKRRAKKYKEKVLLSELSEEEQKEIKEAEEKVVRTILKYVEEAAK .
0.446

So what's the measured apparent Kd (screen) for this one? E92P (designed binder) SMEEEVEKAAKEYEKKKKEAIEKHLEKLKAKDKEAAERFLKELEEAAKEYAKDEAKTMSEEEAKRRAKKYKEKVLLSELSEEEQKEIKEAEPKLVRTILKYVEEAAK
7.78

Find the recorded apparent Kd (screen) belonging to E42W (designed binder) SMEEEVEKAAKEYEKKKKEAIEKHLEKLKAKDKEAAERFLKWLEEAAKEYAKDEAKTMSEEEAKRRAKKYKEKVLLSELSEEEQKEIKEAEEKLVRTILKYVEEAAK and report it.
0.49

If you can, please state the reported apparent Kd (screen) value of R38W (designed binder) SMEEEVEKAAKEYEKKKKEAIEKHLEKLKAKDKEAAEWFLKELEEAAKEYAKDEAKTMSEEEAKRRAKKYKEKVLLSELSEEEQKEIKEAEEKLVRTILKYVEEAAK .
0.446

What apparent Kd (screen) value was documented for this binder, K16Y (designed binder) SMEEEVEKAAKEYEKYKKEAIEKHLEKLKAKDKEAAERFLKELEEAAKEYAKDEAKTMSEEEAKRRAKKYKEKVLLSELSEEEQKEIKEAEEKLVRTILKYVEEAAK ?
0.446
